Measured values drawn from patent US20240058283A1 for this set.

molecular target: TRPC7 (Homo sapiens); construct: expressed in transfected cells; host or cells: HEK293 (transient transfection); assay: OAG-induced Ca2+ entry in Fura2-loaded HEK293 cells overexpressing TRPC7; assay type: cell-based; conditions: FIG. 5; TRPC O/E cells; OAG, Ca2+ present; read-out: TRPC7 IC50
Sequence (Q9HCX4 whole entry): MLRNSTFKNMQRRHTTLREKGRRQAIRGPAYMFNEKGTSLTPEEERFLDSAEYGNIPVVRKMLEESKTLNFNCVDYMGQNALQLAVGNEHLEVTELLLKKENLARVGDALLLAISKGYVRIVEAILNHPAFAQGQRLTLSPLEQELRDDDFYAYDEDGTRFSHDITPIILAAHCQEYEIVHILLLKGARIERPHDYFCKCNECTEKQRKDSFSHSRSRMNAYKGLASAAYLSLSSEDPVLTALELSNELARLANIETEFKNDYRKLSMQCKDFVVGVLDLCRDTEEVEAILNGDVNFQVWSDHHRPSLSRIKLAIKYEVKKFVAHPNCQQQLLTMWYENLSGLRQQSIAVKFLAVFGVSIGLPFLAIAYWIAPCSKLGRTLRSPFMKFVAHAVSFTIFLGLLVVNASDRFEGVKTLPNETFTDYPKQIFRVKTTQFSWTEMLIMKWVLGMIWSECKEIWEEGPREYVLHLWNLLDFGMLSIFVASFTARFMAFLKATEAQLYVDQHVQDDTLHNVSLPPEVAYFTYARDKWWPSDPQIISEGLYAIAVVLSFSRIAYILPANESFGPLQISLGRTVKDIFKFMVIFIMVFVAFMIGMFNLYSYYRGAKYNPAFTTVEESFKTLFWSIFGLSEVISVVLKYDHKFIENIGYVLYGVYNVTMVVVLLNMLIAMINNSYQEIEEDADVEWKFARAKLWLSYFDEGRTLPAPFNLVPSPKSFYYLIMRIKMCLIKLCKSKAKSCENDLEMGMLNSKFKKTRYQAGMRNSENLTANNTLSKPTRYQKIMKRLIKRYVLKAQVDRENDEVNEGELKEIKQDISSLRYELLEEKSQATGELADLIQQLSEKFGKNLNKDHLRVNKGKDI
OBSERVATION_TYPE: pIC50
Keep it numeric: pIC50 is minus log10 of the concentration in mol/L.

query: Fill in the blank: the reported pIC50 of `CCC(=O)N(C)c1ccc(Cl)c(Cl)c1` is ____.
result: 8.05

* * *

molecular target: TRPC6 (Homo sapiens); construct: expressed in transfected cells; experiment: OAG-induced Ca2+ entry in Fura2-loaded HEK293 cells expressing TRPC6; format: cell-based; conditions: ELP-004 0 to 1 mM for 10 minutes before OAG, FIG. 1D, read-out: IC50, inhibition of OAG-induced Ca2+ entry
Sequence (Q9Y210 whole entry, species assumed): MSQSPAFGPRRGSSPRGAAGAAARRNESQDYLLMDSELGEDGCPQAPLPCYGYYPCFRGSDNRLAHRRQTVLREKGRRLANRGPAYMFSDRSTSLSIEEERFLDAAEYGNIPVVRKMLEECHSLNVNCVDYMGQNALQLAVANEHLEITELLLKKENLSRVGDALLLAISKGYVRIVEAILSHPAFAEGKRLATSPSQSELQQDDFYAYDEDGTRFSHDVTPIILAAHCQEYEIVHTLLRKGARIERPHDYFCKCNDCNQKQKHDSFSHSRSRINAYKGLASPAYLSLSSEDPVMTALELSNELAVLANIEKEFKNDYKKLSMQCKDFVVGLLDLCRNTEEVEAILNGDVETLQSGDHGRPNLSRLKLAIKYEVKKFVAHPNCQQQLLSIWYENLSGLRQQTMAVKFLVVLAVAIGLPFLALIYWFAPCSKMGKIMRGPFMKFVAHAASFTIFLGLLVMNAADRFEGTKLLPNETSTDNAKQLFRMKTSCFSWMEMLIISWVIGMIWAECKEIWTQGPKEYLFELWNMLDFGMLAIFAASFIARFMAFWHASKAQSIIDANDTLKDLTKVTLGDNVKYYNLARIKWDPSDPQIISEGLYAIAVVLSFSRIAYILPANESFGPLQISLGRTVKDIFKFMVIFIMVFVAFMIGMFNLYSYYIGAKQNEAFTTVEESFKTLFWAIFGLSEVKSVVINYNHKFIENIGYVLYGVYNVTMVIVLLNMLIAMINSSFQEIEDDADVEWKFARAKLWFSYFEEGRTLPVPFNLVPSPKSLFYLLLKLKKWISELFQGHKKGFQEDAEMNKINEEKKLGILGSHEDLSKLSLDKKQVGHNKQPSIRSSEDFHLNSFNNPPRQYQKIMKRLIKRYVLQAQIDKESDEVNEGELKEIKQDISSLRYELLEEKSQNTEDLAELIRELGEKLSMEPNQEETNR
OBSERVATION_TYPE: IC50

query: Fill in the blank: the reported IC50 of CCC(=O)N(C)c1ccc(Cl)c(Cl)c1 [ELP-004] is ____.
result: 1 to 2 µM

* * *

molecular target: TRPC4 (Homo sapiens, UniProt Q9UBN4); experiment: FIG. 4 TRPC4 overexpressing cells, fura, OAG in the presence of Ca2+; settings: TRPC4 O/E cells, Ca2+ present, N=4
Sequence (Q9UBN4 whole entry, species assumed): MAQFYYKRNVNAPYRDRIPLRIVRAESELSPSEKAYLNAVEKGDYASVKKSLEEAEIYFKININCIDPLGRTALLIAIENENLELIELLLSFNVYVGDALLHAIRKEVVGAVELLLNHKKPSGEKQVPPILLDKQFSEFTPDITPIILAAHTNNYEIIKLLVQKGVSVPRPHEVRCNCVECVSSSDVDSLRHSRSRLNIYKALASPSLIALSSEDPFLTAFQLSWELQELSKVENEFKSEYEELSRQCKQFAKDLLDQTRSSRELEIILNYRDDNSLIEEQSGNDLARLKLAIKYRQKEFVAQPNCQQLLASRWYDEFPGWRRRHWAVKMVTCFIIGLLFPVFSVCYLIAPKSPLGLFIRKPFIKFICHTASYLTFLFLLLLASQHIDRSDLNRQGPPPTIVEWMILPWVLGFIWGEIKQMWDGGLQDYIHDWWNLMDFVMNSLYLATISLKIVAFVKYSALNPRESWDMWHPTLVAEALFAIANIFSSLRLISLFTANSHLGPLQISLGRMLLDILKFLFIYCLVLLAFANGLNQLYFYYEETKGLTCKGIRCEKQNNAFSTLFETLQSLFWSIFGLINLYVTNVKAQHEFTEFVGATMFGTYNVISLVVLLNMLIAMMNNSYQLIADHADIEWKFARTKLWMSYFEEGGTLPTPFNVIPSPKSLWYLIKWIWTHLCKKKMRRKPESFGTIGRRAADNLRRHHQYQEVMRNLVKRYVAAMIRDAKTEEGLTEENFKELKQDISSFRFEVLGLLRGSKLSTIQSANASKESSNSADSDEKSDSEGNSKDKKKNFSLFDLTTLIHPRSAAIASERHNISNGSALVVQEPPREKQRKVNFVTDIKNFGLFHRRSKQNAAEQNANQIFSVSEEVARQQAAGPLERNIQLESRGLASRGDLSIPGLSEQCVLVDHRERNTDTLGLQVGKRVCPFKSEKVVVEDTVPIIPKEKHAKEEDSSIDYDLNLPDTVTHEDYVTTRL
OBSERVATION_TYPE: pIC50
Keep it numeric: pIC50 is minus log10 of the concentration in mol/L.

query: Fill in the blank: the reported pIC50 of CCC(=O)N(C)c1ccc(Cl)c(Cl)c1 [ELP-004] is ____.
result: 6.76

* * *

biological target: TRPC3 (Homo sapiens); test: OAG-induced Ca2+ entry in Fura2-loaded HEK293 cells expressing TRPC3; conditions: ELP-004 0 to 1 mM for 10 minutes before OAG, FIG. 1D, read-out: IC50, inhibition of OAG-induced Ca2+ entry
Sequence (Q13507 whole entry, species assumed): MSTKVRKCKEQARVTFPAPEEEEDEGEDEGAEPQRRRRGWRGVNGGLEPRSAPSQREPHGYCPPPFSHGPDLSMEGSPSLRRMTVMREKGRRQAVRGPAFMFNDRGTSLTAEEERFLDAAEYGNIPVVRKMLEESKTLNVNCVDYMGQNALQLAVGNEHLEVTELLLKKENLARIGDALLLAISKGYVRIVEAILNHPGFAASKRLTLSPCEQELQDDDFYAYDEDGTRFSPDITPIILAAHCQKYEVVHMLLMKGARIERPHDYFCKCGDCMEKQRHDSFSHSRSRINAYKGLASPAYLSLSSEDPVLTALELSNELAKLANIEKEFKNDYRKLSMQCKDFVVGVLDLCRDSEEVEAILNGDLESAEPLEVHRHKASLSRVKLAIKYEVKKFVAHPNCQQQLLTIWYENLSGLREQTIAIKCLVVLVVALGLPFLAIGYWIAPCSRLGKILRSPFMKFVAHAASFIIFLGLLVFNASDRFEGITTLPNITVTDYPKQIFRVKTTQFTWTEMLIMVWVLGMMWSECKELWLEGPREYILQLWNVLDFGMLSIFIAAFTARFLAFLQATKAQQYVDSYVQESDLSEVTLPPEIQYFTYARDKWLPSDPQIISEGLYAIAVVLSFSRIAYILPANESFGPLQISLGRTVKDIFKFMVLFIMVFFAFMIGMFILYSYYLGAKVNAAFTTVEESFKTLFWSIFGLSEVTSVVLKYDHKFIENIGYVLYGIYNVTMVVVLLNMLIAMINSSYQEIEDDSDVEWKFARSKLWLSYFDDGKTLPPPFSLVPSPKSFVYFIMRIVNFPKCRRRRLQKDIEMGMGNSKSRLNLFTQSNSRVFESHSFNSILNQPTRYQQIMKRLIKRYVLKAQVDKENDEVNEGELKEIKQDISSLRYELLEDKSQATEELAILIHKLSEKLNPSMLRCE
OBSERVATION_TYPE: IC50

query: Fill in the blank: the reported IC50 of CCC(=O)N(C)c1ccc(Cl)c(Cl)c1 [ELP-004] is ____.
result: 1 to 2 µM
